Would you mind telling me the reported MIC of each entry?
# Tested on: VRE ATCC 700425 (vanC)
# experimental protocol: MIC, broth microdilution
# Assay type: cell-based, enterococci
# test parameters: VRE ATCC 700425 (vanC)
Give the value, in units of µg/mL, as a plain number.

Req: Which MIC value belongs to CN(C)[C@H]1C(=O)N[C@@H]2Cc3ccc(c(Cl)c3)Oc3cc4cc(c3O)Oc3ccc(cc3Cl)[C@@H](O[C@@H]3O[C@H](CO)[C@@H](O)[C@H](O)[C@H]3NC(=O)CCCCCCCNC(=N)N)[C@@H]3NC(=O)[C@H](NC(=O)[C@@H]4NC(=O)[C@@H](NC2=O)c2cc(O)cc(c2)Oc2cc1ccc2O)c1ccc(O)c(c1)-c1c(O)cc(O)cc1[C@@H](C(=O)O)NC3=O [Compound 24, r1,Me2-r6,C8-guanidino-Tei] ?
Resp: 8

Req: Which MIC value belongs to CCCCCCCC(=O)N[C@H]1[C@H](O[C@@H]2c3ccc(c(Cl)c3)Oc3cc4cc(c3O)Oc3ccc(cc3Cl)C[C@H]3NC(=O)[C@H](N)c5ccc(O)c(c5)Oc5cc(O)cc(c5)[C@H](NC3=O)C(=O)N[C@H]4C(=O)N[C@H]3C(=O)N[C@@H]2C(=O)N[C@H](C(=O)O)c2cc(O)cc(O)c2-c2cc3ccc2O)O[C@H](CO)[C@@H](O)[C@@H]1O [Compound 14, r6,N-octyl-Glc Tei] ?
Resp: 1

Req: Which MIC value belongs to CCCCCCCC(=O)NC1C(OC2c3ccc(c(Cl)c3)Oc3cc4cc(c3O)Oc3ccc(cc3Cl)CC3NC(=O)C(N)c5ccc(O)c(c5)Oc5cc(O)cc(c5)C(NC3=O)C(=O)NC4C(=O)NC3C(=O)NC2C(=O)NC(C(=O)O)c2cc(O)cc(OC4OC(CO)C(O)C(O)C4O)c2-c2cc3ccc2O)OC(CO)C(O)C1O (stereo not drawn) [Compound 26] ?
Resp: 1
